Where these numbers come from: patent US12630785B2

ASSAY REMARKS: Capsule perfume leakage in heavy-duty liquid (HDL) detergent, headspace SPME GC/MS
Type: physicochemical
MEASUREMENT SETUP: PRM of Perfume 1 out of Comparative example 5-3 capsules (per WO2010013250A2)
PROPERTY NAME: Leakage (as %) after 1 week at 35° C.
Write down the numeric answer in % and omit the unit.

Give reported Leakage (as %) after 1 week at 35° C. value for CC(=O)OC1CCCCC1C(C)(C)C (stereo not drawn) [(2-tert-butylcyclohexyl) acetate]
101

Tell me measured Leakage (as %) after 1 week at 35° C. for CCC(C)(O)CCCC(C)C (stereo not drawn) [Tetrahydro linalool] please.
102

Please report Leakage (as %) after 1 week at 35° C. for the following compound: CC1=CC(C)C(C=O)CC1 (stereo not drawn)
101

Look up and state reported Leakage (as %) after 1 week at 35° C. for CC(=O)OC1CCC(C(C)(C)C)CC1 (stereo not drawn) [(4-tert-butylcyclohexyl) acetate]
100

Name the recorded Leakage (as %) after 1 week at 35° C. of the compound listed here: CCC(C)CCCC(C)(C)O (stereo not drawn) [Tetrahydro myrcenol]
105

Using known records, supply Leakage (as %) after 1 week at 35° C. for "CC12CCC(CC1)C(C)(C)O2"
101

Dear colleague, please send me the reported Leakage (as %) after 1 week at 35° C. for CCOC(=O)C(C)CC (stereo not drawn) [Ethyl 2-methyl butyrate] when you can.
99

Quote Leakage (as %) after 1 week at 35° C. reported for CC(=O)OC1CC2CC1C1CC=CC21 (stereo not drawn) [Verdyl acetate] please.
104

State its Leakage (as %) after 1 week at 35° C. for this compound: CC(=O)O[C@@H]1C[C@H]2CC[C@]1(C)C2(C)C (racemic) [iso-Bornyl acetate]
102

====

ASSAY REMARKS: Capsule perfume leakage in liquid fabric enhancer (LFE), headspace SPME GC/MS
Assay type: physicochemical
MEASUREMENT SETUP: PRM of Perfume 1 out of Comparative Example 6-1 capsules (no second shell component); LFE Composition 1
PROPERTY NAME: Leakage (as %) after 1 week at 35° C.
Output spec: scalar in %, unitless text.

Look up and report measured Leakage (as %) after 1 week at 35° C. for this entry: CC(=O)OC1CC2CC1C1CC=CC21 (stereo not drawn) [Verdyl acetate]
20

Give the reported value of Leakage (as %) after 1 week at 35° C. for this record: CCC(C)CCCC(C)(C)O (stereo not drawn) [Tetrahydro myrcenol]
86

Give the value of Leakage (as %) after 1 week at 35° C. reported for the following: CC(=O)OC1CCCCC1C(C)(C)C (stereo not drawn) [(2-tert-butylcyclohexyl) acetate]
5

====

ASSAY REMARKS: Capsule perfume leakage in liquid fabric enhancer (LFE), headspace SPME GC/MS
Format: physicochemical
MEASUREMENT SETUP: PRM of Perfume 1 out of Example 10-2 capsules (Sample A); LFE Composition 1
Hi, to clarify the labels: Criterion met covers Leakage (as %) after 1 week at 35° C. from 8% upward, Criterion not met covers anything below 8%.

Given the entry CC(=O)OC1CC2CC1C1CC=CC21 (stereo not drawn) [Verdyl acetate] , answer whether its Leakage (as %) after 1 week at 35° C. meets or surpasses 8%.
Criterion not met

Does the molecule CC(=O)OC1CCCCC1C(C)(C)C (stereo not drawn) [(2-tert-butylcyclohexyl) acetate] have recorded Leakage (as %) after 1 week at 35° C. that is 8% or more?
Criterion met

Decide: Leakage (as %) after 1 week at 35° C. of CC(=O)OC1CCC(C(C)(C)C)CC1 (stereo not drawn) [(4-tert-butylcyclohexyl) acetate] >= 8%?
Criterion not met

# bool: Leakage (as %) after 1 week at 35° C. of CC(=O)O[C@@H]1C[C@H]2CC[C@]1(C)C2(C)C (racemic) [iso-Bornyl acetate] >= 8%
Criterion met

Tell me whether Leakage (as %) after 1 week at 35° C. is at least 8% here: CCOC(=O)C(C)CC (stereo not drawn) [Ethyl 2-methyl butyrate]
Criterion not met

Hello, I need to know if CCC(C)CCCC(C)(C)O (stereo not drawn) [Tetrahydro myrcenol] has measured Leakage (as %) after 1 week at 35° C. not below 8%. Thanks!
Criterion not met

====

ASSAY REMARKS: Capsule perfume leakage in heavy-duty liquid (HDL) detergent, headspace SPME GC/MS
Type: physicochemical
MEASUREMENT SETUP: PRM of Perfume 1 out of Comparative Example 5-1 capsules (polyacrylate shell)
PROPERTY NAME: Leakage (as %) after 1 week at 35° C.
Reply with just the number (in %).

Provide measured Leakage (as %) after 1 week at 35° C. value, entry: CC(=O)OC1CC2CC1C1CC=CC21 (stereo not drawn) [Verdyl acetate]
1

Dear colleague, please send me the reported Leakage (as %) after 1 week at 35° C. for CCC(C)(O)CCCC(C)C (stereo not drawn) [Tetrahydro linalool] when you can.
2

Give Leakage (as %) after 1 week at 35° C. for CC(=O)OC1CCCCC1C(C)(C)C (stereo not drawn) [(2-tert-butylcyclohexyl) acetate]
1

Quickly give me recorded Leakage (as %) after 1 week at 35° C. for CCOC(=O)C(C)CC (stereo not drawn) [Ethyl 2-methyl butyrate]
75

For the compound CC(=O)OC1CCC(C(C)(C)C)CC1 (stereo not drawn) [(4-tert-butylcyclohexyl) acetate] , give its measured Leakage (as %) after 1 week at 35° C. value.
0

Name the recorded Leakage (as %) after 1 week at 35° C. of the item CC1=CC(C)C(C=O)CC1 (stereo not drawn) in your answer.
12

Identify Leakage (as %) after 1 week at 35° C. associated with the compound CCC(C)CCCC(C)(C)O (stereo not drawn) [Tetrahydro myrcenol]
3

Respond only with Leakage (as %) after 1 week at 35° C. recorded for "CC12CCC(CC1)C(C)(C)O2"
1

Please list Leakage (as %) after 1 week at 35° C. recorded for the compound CC(=O)O[C@@H]1C[C@H]2CC[C@]1(C)C2(C)C (racemic) [iso-Bornyl acetate]
1

====

ASSAY REMARKS: Capsule perfume leakage in liquid fabric enhancer (LFE), headspace SPME GC/MS
Type: physicochemical
MEASUREMENT SETUP: PRM of Perfume 2 out of Capsule Sample C; LFE Composition 1
Provide the reported Leakage (as %) after 1 week at 35° C. of each item.
Dear colleague, please return just the value in %, with no unit written.

Determine from records and report Leakage (as %) after 1 week at 35° C. for "C=CCCC(=O)C1=CCCC(C)(C)C1"
2

Identify measured Leakage (as %) after 1 week at 35° C. corresponding to CC1=CC(C)C(C=O)CC1 (stereo not shown)
12

Determine its reported Leakage (as %) after 1 week at 35° C.: CC=CC(=O)C1C(C)C=CCC1(C)C (stereo not shown)
4

Check the records and state Leakage (as %) after 1 week at 35° C. for CC(=O)OC1CC2CC1C1CC=CC21 (stereo not shown) [Verdyl acetate]
6

====

ASSAY REMARKS: Capsule perfume leakage in liquid fabric enhancer (LFE), headspace SPME GC/MS
Assay type: physicochemical
MEASUREMENT SETUP: PRM of Perfume 1 out of Example 2, Sample A capsules; LFE Composition 2 (Ester Quat 2)
Checkbox rule: Leakage (as %) after 1 week at 35° C. lower than 1% = T; Leakage (as %) after 1 week at 35° C. not lower than 1% = F.

is_below(Leakage (as %) after 1 week at 35° C., 1%) for CC12CCC(CC1)C(C)(C)O2 [Eucalyptol] ?
F

is_below(Leakage (as %) after 1 week at 35° C., 1%) for CC1=CC(C)C(C=O)CC1 (stereo not drawn) ?
F

# TODO verify Leakage (as %) after 1 week at 35° C. < 1% strictly for this compound: CCC(C)CCCC(C)(C)O (stereo not drawn) [Tetrahydro myrcenol]
F

Leakage (as %) after 1 week at 35° C. strictly < 1% for this compound? CC(=O)OC1CCCCC1C(C)(C)C (stereo not drawn) [(2-tert-butylcyclohexyl) acetate]
F

State whether 1% exceeds Leakage (as %) after 1 week at 35° C. recorded for CCC(C)(O)CCCC(C)C (stereo not drawn) [Tetrahydro linalool] .
F

Lab log: compare recorded Leakage (as %) after 1 week at 35° C. with 1%; is it strictly lower for CC(=O)OC1CC2CC1C1CC=CC21 (stereo not drawn) [Verdyl acetate] ?
T

Is 1% strictly greater than the compound's reported Leakage (as %) after 1 week at 35° C.? compound: CC(=O)OC1CCC(C(C)(C)C)CC1 (stereo not drawn) [(4-tert-butylcyclohexyl) acetate]
T

Regarding CC(=O)O[C@@H]1C[C@H]2CC[C@]1(C)C2(C)C (racemic) [iso-Bornyl acetate] , kindly confirm whether its Leakage (as %) after 1 week at 35° C. is beneath 1%.
T

====

ASSAY REMARKS: Capsule perfume leakage in heavy-duty liquid (HDL) detergent, headspace SPME GC/MS
Format: physicochemical
MEASUREMENT SETUP: PRM of Perfume 1 out of Comparative example 5-2 capsules (per EP2500087B1)
PROPERTY NAME: Leakage (as %) after 1 week at 35° C.
# unit: % | format: bare number

Return reported Leakage (as %) after 1 week at 35° C.. Input compound: CC(=O)O[C@@H]1C[C@H]2CC[C@]1(C)C2(C)C (racemic) [iso-Bornyl acetate]
105

Write down Leakage (as %) after 1 week at 35° C. measured for item CC(=O)OC1CCC(C(C)(C)C)CC1 (stereo not drawn) [(4-tert-butylcyclohexyl) acetate]
108

Report Leakage (as %) after 1 week at 35° C., nothing else, for this compound: CC1=CC(C)C(C=O)CC1 (stereo not drawn)
104

Name the recorded Leakage (as %) after 1 week at 35° C. of the compound listed here: "CC12CCC(CC1)C(C)(C)O2"
104

// Input: CCC(C)(O)CCCC(C)C (stereo not drawn) [Tetrahydro linalool] . Output its Leakage (as %) after 1 week at 35° C. only.
105

Give recorded Leakage (as %) after 1 week at 35° C.. CCC(C)CCCC(C)(C)O (stereo not drawn) [Tetrahydro myrcenol]
107

# return recorded Leakage (as %) after 1 week at 35° C. for entry CC(=O)OC1CCCCC1C(C)(C)C (stereo not drawn) [(2-tert-butylcyclohexyl) acetate]
105

// fetch Leakage (as %) after 1 week at 35° C. given entry CCOC(=O)C(C)CC (stereo not drawn) [Ethyl 2-methyl butyrate]
103

State its Leakage (as %) after 1 week at 35° C. for this compound: CC(=O)OC1CC2CC1C1CC=CC21 (stereo not drawn) [Verdyl acetate]
107
